molecular target: Mitogen-activated protein kinase 10 (Homo sapiens) (UniProt P53779); experiment: JNK3 kinase activity inhibitors, primary screen, biochemical, human, purified enzyme (AID 746); settings: HTS, at 8 µM, hits give high values;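 also: 0% = DMSO and 100% = reference inhibitor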
Sequence (P53779 whole entry, looked up): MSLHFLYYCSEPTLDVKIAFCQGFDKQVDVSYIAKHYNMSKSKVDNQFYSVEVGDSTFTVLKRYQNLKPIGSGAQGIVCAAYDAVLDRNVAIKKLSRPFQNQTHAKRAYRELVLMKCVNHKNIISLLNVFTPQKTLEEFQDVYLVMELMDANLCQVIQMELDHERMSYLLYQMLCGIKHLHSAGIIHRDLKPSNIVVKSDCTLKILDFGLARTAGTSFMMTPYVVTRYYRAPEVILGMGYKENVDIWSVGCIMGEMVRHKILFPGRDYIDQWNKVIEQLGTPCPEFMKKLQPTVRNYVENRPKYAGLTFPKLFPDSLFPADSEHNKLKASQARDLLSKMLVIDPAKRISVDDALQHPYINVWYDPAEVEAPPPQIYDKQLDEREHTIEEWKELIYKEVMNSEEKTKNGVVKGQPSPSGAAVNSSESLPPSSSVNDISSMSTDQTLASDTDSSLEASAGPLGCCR
The campaign covered roughly 60,000 compounds. About 370 (0.62%) were called active. What follows is part of a selection rich in actives, with near analogues and random picks from the rest.
Here, each record is paired with measured inhibition data.
The response must be a number in % with no trailing unit.

Examples with their reported inhibition follow.
Cc1cccc(NC(=O)CSC(N)=O)c1C ... -3.12
O=C(NCc1ccco1)c1ccc(CS(=O)(=O)Cc2ccc(F)cc2)o1 ... 2.1
CCc1ccc(-c2nnn(Cc3nc4ccccc4s3)n2)cc1 ... -6.35
O=C(Cn1cnc2c(cnn2-c2ccccc2)c1=O)NCc1ccccc1 ... 3.12

Now for another entry.
// sample O=C(CSc1nc2c(cnn2-c2ccc(F)cc2)c(=O)[nH]1)N1CCCCCC1 , its inhibition was 1.45
